# target.or.test.system: p110δ/p85α (Homo sapiens, UniProt O00329, S675R)
# Sequence (O00329 whole entry S675R): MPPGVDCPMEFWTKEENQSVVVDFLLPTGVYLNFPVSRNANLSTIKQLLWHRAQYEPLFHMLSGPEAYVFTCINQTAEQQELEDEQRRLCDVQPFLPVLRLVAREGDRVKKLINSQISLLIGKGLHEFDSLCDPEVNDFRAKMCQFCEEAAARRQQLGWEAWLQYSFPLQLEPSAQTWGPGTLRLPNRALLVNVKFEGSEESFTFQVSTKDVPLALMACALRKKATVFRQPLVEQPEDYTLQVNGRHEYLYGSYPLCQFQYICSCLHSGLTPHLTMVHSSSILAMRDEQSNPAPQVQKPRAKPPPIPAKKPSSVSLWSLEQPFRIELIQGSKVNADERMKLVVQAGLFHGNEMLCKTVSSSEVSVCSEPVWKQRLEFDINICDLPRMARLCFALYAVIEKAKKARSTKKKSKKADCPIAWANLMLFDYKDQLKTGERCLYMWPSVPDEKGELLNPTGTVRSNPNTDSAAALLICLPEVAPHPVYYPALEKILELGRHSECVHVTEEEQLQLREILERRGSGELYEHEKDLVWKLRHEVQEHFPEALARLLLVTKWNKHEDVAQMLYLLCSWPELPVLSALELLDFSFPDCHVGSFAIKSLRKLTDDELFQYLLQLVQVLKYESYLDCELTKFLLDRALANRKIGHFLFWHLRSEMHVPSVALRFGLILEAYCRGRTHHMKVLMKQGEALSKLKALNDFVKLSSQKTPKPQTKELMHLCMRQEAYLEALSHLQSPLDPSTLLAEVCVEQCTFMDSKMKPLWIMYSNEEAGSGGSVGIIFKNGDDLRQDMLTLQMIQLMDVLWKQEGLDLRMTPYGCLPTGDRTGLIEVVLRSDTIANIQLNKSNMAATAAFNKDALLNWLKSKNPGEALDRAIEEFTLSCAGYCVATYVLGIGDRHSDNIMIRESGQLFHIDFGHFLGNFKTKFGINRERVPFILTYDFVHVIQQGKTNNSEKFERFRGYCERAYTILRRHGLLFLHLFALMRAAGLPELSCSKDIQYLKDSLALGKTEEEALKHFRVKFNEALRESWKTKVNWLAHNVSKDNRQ
# Sequence (P27986 whole entry partner): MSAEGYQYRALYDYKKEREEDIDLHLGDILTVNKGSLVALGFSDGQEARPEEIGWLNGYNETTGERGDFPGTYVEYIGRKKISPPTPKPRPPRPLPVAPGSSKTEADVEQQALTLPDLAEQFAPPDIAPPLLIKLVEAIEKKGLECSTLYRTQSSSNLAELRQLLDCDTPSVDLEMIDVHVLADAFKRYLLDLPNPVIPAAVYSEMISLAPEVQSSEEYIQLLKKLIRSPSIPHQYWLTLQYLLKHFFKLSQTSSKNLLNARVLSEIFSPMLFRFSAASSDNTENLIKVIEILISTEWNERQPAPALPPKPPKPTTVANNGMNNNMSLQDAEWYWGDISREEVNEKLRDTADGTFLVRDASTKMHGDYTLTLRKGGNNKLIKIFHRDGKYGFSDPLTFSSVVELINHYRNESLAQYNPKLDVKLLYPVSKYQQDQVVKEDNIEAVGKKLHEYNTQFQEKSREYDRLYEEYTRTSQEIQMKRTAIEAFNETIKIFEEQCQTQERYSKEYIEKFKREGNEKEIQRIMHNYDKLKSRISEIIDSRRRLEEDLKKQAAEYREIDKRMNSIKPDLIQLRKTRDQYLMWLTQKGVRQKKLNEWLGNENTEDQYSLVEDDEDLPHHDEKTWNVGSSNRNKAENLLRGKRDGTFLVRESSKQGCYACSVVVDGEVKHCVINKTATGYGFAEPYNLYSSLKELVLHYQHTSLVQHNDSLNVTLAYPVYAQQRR
# test.details: Lipid kinase assay of drug effects on p110δ/p85α
# study.conditions: PtdIns substrate, 40 μM ATP, 10 min at 25° C., 1% DMSO; read-out: IC50, inhibition of lipid kinase activity
reported.endpoint: IC50 (nM)

{"molecule": "O=c1cc(N2CCOCC2)oc2c(-c3ccccc3)cccc12 [LY294002]", "reported.endpoint": "IC50", "reported.measurement": 500}

* * *

# target.or.test.system: p110α/p85α (Bos taurus, UniProt P32871)
# Sequence (P32871 whole entry): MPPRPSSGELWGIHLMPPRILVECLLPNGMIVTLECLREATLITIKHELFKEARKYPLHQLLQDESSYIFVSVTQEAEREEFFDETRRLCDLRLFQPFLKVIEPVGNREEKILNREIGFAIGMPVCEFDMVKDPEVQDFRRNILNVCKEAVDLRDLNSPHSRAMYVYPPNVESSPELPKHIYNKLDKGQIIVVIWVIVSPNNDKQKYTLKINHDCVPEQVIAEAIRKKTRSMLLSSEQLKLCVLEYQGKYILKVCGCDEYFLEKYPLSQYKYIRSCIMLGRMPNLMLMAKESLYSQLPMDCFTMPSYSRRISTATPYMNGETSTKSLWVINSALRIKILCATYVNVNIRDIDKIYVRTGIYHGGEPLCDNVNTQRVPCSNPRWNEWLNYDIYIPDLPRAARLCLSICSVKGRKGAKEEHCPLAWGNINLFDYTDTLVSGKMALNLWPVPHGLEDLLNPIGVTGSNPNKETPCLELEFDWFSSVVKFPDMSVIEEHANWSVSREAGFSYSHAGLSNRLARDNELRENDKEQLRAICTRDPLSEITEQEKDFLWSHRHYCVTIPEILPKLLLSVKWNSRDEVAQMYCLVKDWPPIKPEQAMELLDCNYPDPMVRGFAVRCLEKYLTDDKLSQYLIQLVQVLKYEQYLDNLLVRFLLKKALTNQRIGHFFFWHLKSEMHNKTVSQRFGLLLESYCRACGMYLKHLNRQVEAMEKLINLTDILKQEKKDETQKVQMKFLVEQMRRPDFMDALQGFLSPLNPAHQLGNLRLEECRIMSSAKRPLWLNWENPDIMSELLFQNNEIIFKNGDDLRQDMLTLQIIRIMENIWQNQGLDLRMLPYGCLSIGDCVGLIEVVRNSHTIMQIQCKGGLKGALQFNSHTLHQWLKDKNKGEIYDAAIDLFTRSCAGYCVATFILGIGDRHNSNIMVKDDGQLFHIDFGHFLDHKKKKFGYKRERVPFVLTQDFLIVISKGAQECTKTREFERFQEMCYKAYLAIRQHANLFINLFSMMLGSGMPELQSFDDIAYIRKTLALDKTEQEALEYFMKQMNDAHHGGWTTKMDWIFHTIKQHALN
# test.details: Lipid kinase assay of drug effects on p110α/p85α
pIC50: −log10 of the molar value.
reported.endpoint: pIC50

{"compound": "COC[C@H]1OC(=O)c2coc3c2[C@@]1(C)C1=C(C3=O)[C@@H]2CCC(=O)[C@@]2(C)C[C@H]1OC(C)=O [wortmannin]", "reported.measurement": 8.30}
